Listing of entries alongside the reported IC50.
System: FM3A
Assay: Inhibitory activity against proliferation of murine (FM3A) tumor cell.
Assay type: functional, cell-based
Details: Mus musculus
Enter your answer as a number in µg/mL; do not include the unit.

Illustrative cases are given below, each with its answer.
CCCCCCCCNC(=O)OC/C=C(\C)C1=CC(=O)C(C)(C)O1
7.1
C/C(=C\COC(=O)NCCCl)C1=CC(=O)C(C)(C)O1
20.8

Okay, now this molecule:
Any idea what IC50 was measured for "COc1cc2ccc(=O)oc2cc1OC/C=C(\C)C1=CC(=O)C(C)(C)O1" ?
3.9

###

System: MOLT-4F
Assay: Inhibitory activity against proliferation of human T-lymphoblast Molt/4F tumor cell line
Assay type: functional, cell-based
endpoint_label: IC50

Example entries begin here.
C/C(=C\C=C/C1CCCCC1)C1=CC(=O)C(C)(C)O1
7.1 µg/mL
C/C(=C\C=C\c1ccccc1)C1=CC(=O)C(C)(C)O1
14 µg/mL
COc1ccc(/C=C/C=C(\C)C2=CC(=O)C(C)(C)O2)cc1
10 µg/mL

// switching to the query molecule
State its IC50 on MOLT-4F: "C/C(=C\COC(=O)NCc1ccccc1)C1=CC(=O)C(C)(C)O1"
6 µg/mL

###

System: MT4
Experiment: Inhibitory activity against proliferation of human T-lymphocyte MT-4 tumor cell line
Type: functional, cell-based
Listed here are compounds together with their documented IC50.

// below: answered compounds
COc1ccc(/C=C/C=C(\C)C2=CC(=O)C(C)(C)O2)cc1
5.7 µg/mL
CCCCNC(=O)OC/C=C(\C)C1=CC(=O)C(C)(C)O1
1.2 µg/mL
C/C(=C\C=C\c1ccccc1)C1=CC(=O)C(C)(C)O1
6.5 µg/mL
C/C(=C\C=C/C1CCCCC1)C1=CC(=O)C(C)(C)O1
8.4 µg/mL
C/C(=C\COC(=O)NC(C)(C)C)C1=CC(=O)C(C)(C)O1
2.1 µg/mL

Now for a further compound.
For the compound "C=CCNC(=O)OC/C=C(\C)C1=CC(=O)C(C)(C)O1" , what IC50 is on record?
2.8 µg/mL
